target: MRGPRX2 (Homo sapiens (Human), UniProt Q96LB1); assay: FLIPR Ca2+ assay, antagonist mode, tetracycline-inducible MRGPRX2 stable cell line; type: cell-based; conditions: Table 1; read-out: Ki
Sequence (Q96LB1 whole entry): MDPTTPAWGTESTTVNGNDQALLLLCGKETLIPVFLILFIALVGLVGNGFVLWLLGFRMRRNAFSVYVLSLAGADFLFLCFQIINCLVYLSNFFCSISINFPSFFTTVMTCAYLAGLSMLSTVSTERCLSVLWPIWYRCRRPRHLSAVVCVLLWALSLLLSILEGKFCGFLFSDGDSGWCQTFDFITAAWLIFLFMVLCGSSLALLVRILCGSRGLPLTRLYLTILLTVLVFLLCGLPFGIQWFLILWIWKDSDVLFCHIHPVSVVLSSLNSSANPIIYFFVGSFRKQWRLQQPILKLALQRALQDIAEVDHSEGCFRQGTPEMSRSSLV
Attribute: pKi
Field pKi (float): negative decimal logarithm of the concentration in molar.

- molecule: "O=c1c2ccccc2[nH]c(=S)n1Cc1cccs1 [Compound C9-8]"
  val: 6.29
- molecule: "O=c1c2ccccc2[nH]c(=S)n1Cc1ccc(Cl)cc1 [Compound C9-3]"
  val: 5.75
- molecule: "O=c1c2ccccc2[nH]c(=S)n1Cc1ccccn1 [ZINC16991592, reference compound]"
  val: 5.66
- molecule: "O=c1c2ccccc2[nH]c(=S)n1Cc1nccs1 [Compound 9]"
  val: 7.49

Given the entry COc1cccnc1Cn1c(=S)[nH]c2ccccc2c1=O [Compound 8] , report its measured pKi.
7.24

Given the entry O=c1c2cc(F)ccc2[nH]c(=S)n1Cc1ccccn1 [Compound 14] , report its measured pKi.
5.60

Given the entry COc1ccccc1Cn1c(=S)[nH]c2ccccc2c1=O [Compound C9-5] , report its measured pKi.
7.01

Given the entry O=c1c2ccccc2[nH]c(=S)n1CCc1ccccn1 [Compound 7] , report its measured pKi.
5.19
